# Test system: OV90
# Test: Primary qHTS to identify gynecologic anti-cancer compounds using libraries of approved drugs and bioactive compounds (AID 1345084); also: % is scaled to controls: 0 for no effect and ±100 for the full control effect; nearly all actives have a fitted effect of over 55% in size
# Reported conditions: Gynecologic cancer cell panel viability, ATPlite luminescence, 48 h; series mostly up to 57.5 µM
# Source text: National Center for Advancing Translational Sciences [NCATS] Assay Overview: Chemotherapeutic drug responses vary from cancer to cancer and from patient to patient. […] ATPlite is a luminescence based assay reliant on the conversion of a luciferase substrate to light in the presence of ATP. As a cytotoxic compound will suppress growth and decrease the number of cells, the concentration of ATP will decrease, and less light signal will be detected in the well. […]
Inconclusive results are not listed. Activity calls are given as the source filed them. Calls follow the shape of the dose curve; as a rule, active = well fitted cell-killing curve with a large enough effect; inconclusive = small, poorly fitted or top-dose-only effect, or effect the other way; inactive = flat fitted curve, though single readings scatter.

# Molecule, activity change, negative = cytotoxicity
data = [
    ("COC(=O)C1=CO[C@@H](O)C2C(CO)=CCC12 (some centres undefined)", "inactive"),
    ("CC1OC2OC(=O)C3(C)CC4=C(CO)C5=C(CC(=O)C4(C)C(C1=O)C23)C(C)(C)OC(=O)C5 (centres undefined)", "inactive"),
    ("CC(C)=CCC/C(C)=C/Cc1ccc(O)c(C2OC(=O)c3cc(C(=O)O)cc(O)c32)c1O (centres undefined)", "inactive"),
    ("CC1(C)CC[C@]2(C(=O)OC3OC(CO)C(O)C(O)C3O)CC[C@]3(C)C(=CCC4[C@@]5(C)CC[C@H](OC6OC(C(=O)O)C(O)C(OC7OC(CO)C(O)C(O)C7O)C6O)C(C)(C)C5CC[C@]43C)C2C1 (some centres undefined)", "9.69% [at 11.6 µM] (inactive)"),
]

====

# Tested on: HEK293
# Test: Cytotoxic Profiling of Annotated Libraries Using Quantitative High-Throughput Screening (AID 1296008); also: nearly all actives have a fitted effect of over 60% in size
# Reported conditions: Five cell lines viability, CellTiter-Glo ATP luminescence, 48-72 h
Inconclusive results are not listed. Calls of active or inactive are those of the source. Calls come from the whole dose curve; as a rule, active = well fitted inhibition curve with a large enough effect; inconclusive = small, poorly fitted or top-dose-only effect; inactive = flat fitted curve, though single readings scatter.
The categories you may choose from are active, inactive

# Compound, Assigned label
measured = [
    ("C/C=C/C1=CC2=C(CO1)C(=O)C(C)(O)C(OC(=O)c1c(C)cc(OC)cc1O)C2 (centres undefined)", "active"),
    ("COc1cccc(-c2cc(NCc3ccc4c(c3)OCO4)nc(N)n2)c1", "active"),
    ("C=C(C)C(=O)O[C@H]1CC2=CC(C/C(C)=C\\[C@H]3OC(=O)C(=C)[C@H]13)OC2=O (some centres undefined)", "active"),
    ("CCCCc1nc2cc(/C=C/C(=O)NO)ccc2n1CCN(CC)CC", "active"),
    ("CCCCC1CCN(CCCC(=O)c2ccccc2C)CC1", "active"),
    ("CCN(CC)c1ccc2c(O)c(C=Nc3ccc(CC(=O)O)c(-c4c5c(nc6ccccc46)CCC(C(=O)NN)C5)c3)c(=O)oc2c1 (centres undefined)", "active"),
]

# outcome recorded in this test, key = CC(=O)O[C@@](C)(C(=O)/C=C/C(C)(C)O)[C@H]1[C@H](O)C[C@@]2(C)[C@@H]3CC=C4[C@@H](C=C(O)C(=O)C4(C)C)[C@]3(C)C(=O)C[C@]12C active

Please let me know the test result on file for CC(C)c1cc(CNc2nc(Nc3cc(C4CC4)[nH]n3)cc(N3CCN(C)CC3)n2)on1 . active

Recorded call for OC1CCC(Nc2ncc3nc(Nc4c(F)cc(F)cc4F)n([C@H]4CCOC4)c3n2)CC1 (some centres undefined) ? inactive

Assay result, entry O=S(=O)(NCC1CC1)c1ccc(Nc2nccc(N3CCCc4cc(O)ccc43)n2)cc1 — outcome? active

Just curious, what result did CN(C)c1nc(NC2CCC(NC(=O)c3ccc(F)c(F)c3)CC2)nc2ccccc12 (centres undefined) get here? active

Recorded call for CCC(C)C(=O)OC1CC(O)C23C4OCC5(C(O)CC2C1(C)C(O)O4)C3C(=O)CC1(C)C(c2ccoc2)CC2OC215 (centres undefined) ? active
